Hey, just so you know, these numbers are from PubChem BioAssay (NCI).

- Test system: NCI/ADR-RES ovarian
- procedure.text: NCI-60 one-dose screen, 48 h
- protocol.conditions: 10 µM unless noted
This is part of a sample that, as a whole, favours compounds with a hit. Of some 83,000 tested, about 20% had one in any assay. The source made the active and inactive calls. How the source made its calls: active means growth percent below 10; inactive means the rest.
Allowed answers: Yes (active), No (inactive)

Take a look at these entries with their results.
Incoming: So what was the verdict on COc1cc(CNC(=O)CCCC/C=C/C(C)C)ccc1OCc1nnc(Nc2ccccc2F)o1 in this test?
Outgoing: No

Incoming: So what was the verdict on COc1cc(OC)c(/C=C/c2ccc3ccccc3[n+]2C)c(OC)c1 in this test?
Outgoing: No

Incoming: So what was the verdict on Cc1ccc(C(=O)Nc2ccc(CN3CCN(C)CC3)c(C(F)(F)F)c2)cc1C#Cc1cncc2ncccc12 in this test?
Outgoing: Yes

Incoming: So what was the verdict on COC(=O)c1ccc2[nH]c(O)c(C(=Nc3ccc(N(C)C(=O)CN4CCN(C)CC4)cc3)c3ccc(N)cc3)c2c1 in this test?
Outgoing: No

Incoming: So what was the verdict on O=C(CCl)c1ccc2c(c1)CCCC2 in this test?
Outgoing: No

Continuing:
Incoming: So what was the verdict on CCOC(=O)c1cc(-c2ccc(OC)cc2)[nH]c1NNC(=O)CCOC in this test?
Outgoing: No

Incoming: So what was the verdict on Nc1nc2c(c3cnccc13)C(c1cccc(Br)c1)Cc1cnccc1-2 (stereo not given) in this test?
Outgoing: Yes

Incoming: So what was the verdict on O=C1C(Cl)=C(SC2=NCCN2)C(=O)c2ccccc21 in this test?
Outgoing: No

Incoming: So what was the verdict on COc1ccc(Cn2cc3c(c2-c2ccc(O)cc2)CCc2cnoc2-3)cc1 in this test?
Outgoing: Yes

Incoming: So what was the verdict on C=CCNC(=S)NNc1ccc([N+](=O)[O-])cn1 in this test?
Outgoing: No
